# System: Human immunodeficiency virus 1
# measurement_protocol: Antiviral activity against HIV1 BaL infected in human PBMC assessed as inhibition of viral p24 antigen production after 4 days by ELISA
# Format: functional, organism-based
# measurement_parameters: Human immunodeficiency virus 1, BaL, 96 h
readout_label: pIC50
// pIC50 is dimensionless: -log10 of concentration (M)

Documented pIC50 of `Cc1ccc2[nH]c(=O)c(CN(Cc3ccco3)C(=O)c3ccc(Cl)cc3)cc2c1` : 5.37

###

# Tested on: Human immunodeficiency virus 1
# measurement_protocol: Antiviral activity against HIV1 RF infected in human MT2 cells assessed as inhibition of viral p24 antigen production after 4 days by ELISA
# Assay type: functional, organism-based
# measurement_parameters: Human immunodeficiency virus 1, RF, MT2, 96 h
readout_label: pIC50
Entry type: numeric. Quantity: pIC50, the -log10 of concentration in molar units.

Log: Human immunodeficiency virus 1, molecule `Cc1ccc2[nH]c(=O)c(CN(Cc3ccco3)C(=O)c3ccc(Cl)cc3)cc2c1` , pIC50 = 5.79
